Cited source: PubChem BioAssay AID1850

# inhibition per entry
# Protocol Details: PhoP regulon inhibitors, Salmonella typhi PhoP promoter GFP reporter, confirmatory (AID 1850);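 also: 0% = induced wells with vehicle and 100% = uninduced wells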
# Measurement Conditions: fluorescence, 4 h, at 50 µM, active compounds read high
Hit rate of the full screen: of about 310,000 compounds, about 1,000 (0.32%) were called active. Not all results are given here. Results with a measured potency or affinity are listed apart.
Measurement Name: inhibition (%)

molecule="COc1ccc(C(CCN)c2ccc3c(c2)OCO3)cc1 (stereo not drawn)" measurement_name=inhibition quantitative_result=-14.2
molecule=COc1ccc(NS(=O)(=O)c2cccc(C(=O)NNC(=O)c3cncc(Br)c3)c2)cc1 measurement_name=inhibition quantitative_result=11.8
molecule=O=C(O)c1ccc(Nc2c3ccccc3nc3ccccc23)cc1 measurement_name=inhibition quantitative_result=4.42
molecule=C/C(=N\Nc1cccc2cccnc12)c1ccc(N)cc1 measurement_name=inhibition quantitative_result=10.3
molecule=COc1ccc2nc(C)cc(NCCN3CCOCC3)c2c1 measurement_name=inhibition quantitative_result=3.31
molecule=C#CCOCCOCCOCCNc1nc(N2CCN(C(=O)CCCCCCCCCCNC(=O)[C@@H](CCC(=O)O)n3cc(CCCCCN)nn3)CC2)nc(N2CCN(C(=O)CCCCCCCCCCNC(=O)[C@H](CO)n3cc(CCCCCN)nn3)CC2)n1 measurement_name=inhibition quantitative_result=-6.21
molecule=O=[N+]([O-])c1cc(NCCO)c(N2CCCCCC2)c2nonc12 measurement_name=inhibition quantitative_result=-4.05
molecule=CCOC(=O)N1CCN(c2ccnc3cc(Cl)ccc23)CC1 measurement_name=inhibition quantitative_result=-0.34
molecule="CCOC(=O)C(C)NC(=O)CCc1nnc2ccc(N3CCCCC3)nn12 (stereo not drawn)" measurement_name=inhibition quantitative_result=1.43
molecule=Oc1ccc(Nc2ccnc3cc(Cl)ccc23)cc1 measurement_name=inhibition quantitative_result=-4.09
molecule=C#CCOCCOCCOCCNc1nc(N2CCN(C(=O)CCCCCCCCCCNC(=O)[C@@H](CCC(=O)O)n3cc(CCCCCN)nn3)CC2)nc(N2CCN(C(=O)CCCCCCCCCCNC(=O)[C@H](CO)n3cc(CCCSC)nn3)CC2)n1 measurement_name=inhibition quantitative_result=-11.4
molecule="COc1ccc(C(CCNCc2ccc(N(C)C)cc2)c2ccccc2)cc1 (stereo not drawn)" measurement_name=inhibition quantitative_result=6.13
molecule=C#CCOCCOCCOCCNc1nc(N2CCN(C(=O)CCCCCCCCCCNC(=O)[C@@H](CCC(=O)O)n3cc(CCCCCN)nn3)CC2)nc(N2CCN(C(=O)CCCCCCCCCCNC(=O)[C@H](CCCCN)n3cc(C[C@@H](C)CC)nn3)CC2)n1 measurement_name=inhibition quantitative_result=-7.23
molecule="Cc1sc2ncnc(SCC(=O)N3CCCC(C(F)(F)F)C3)c2c1C (stereo not drawn)" measurement_name=inhibition quantitative_result=8.83
molecule="C/C1=C\\CCC2C(/C=C(\\C)CC1)OC(=O)C2CN1CCCCC1 (stereo not drawn)" measurement_name=inhibition quantitative_result=5.15
molecule=c1ccc(CN2CCN(Cc3c[nH]c4ccccc34)CC2)cc1 measurement_name=inhibition quantitative_result=1.99
molecule=Cc1cc(NCCN2CCOCC2)c2ccc3ccccc3c2n1 measurement_name=inhibition quantitative_result=0.49
molecule=C#CCOCCOCCOCCNc1nc(N2CCN(C(=O)CCCCCCCCCCNC(=O)[C@H](CO)n3cc(CCCSC)nn3)CC2)nc(N2CCN(C(=O)CCCCCCCCCCNC(=O)[C@H](CCCN=C(N)N)n3cc(C[C@@H](C)CC)nn3)CC2)n1 measurement_name=inhibition quantitative_result=25.4
